Measured values drawn from patent US20160075653A1 for this set.

Test: Measurement of log P values by HPLC on reversed phase columns (methods [a] pH 2.3, [b] pH 2.7, [c] pH 7.8)
Format: physicochemical
Conditions: HPLC reversed phase, method [b] (pH 2.7)
Recorded logP, one value per entry.

Example molecules with recorded logP:
{"molecule": "Cc1nn(C)cc1C(=O)NC1CCCCC1c1ccc(Cl)cc1 (centres unmarked)", "logP": "2.49^[b]"}
{"molecule": "O=C(N[C@@H]1CCC[C@@H]1c1ccc(C(F)(F)F)cc1)c1ccccc1C(F)(F)F (relative stereo)", "logP": "3.83^[b]"}
{"molecule": "O=C(N[C@@H]1CC[C@H]1c1ccc(F)cc1C(F)(F)F)c1ccccc1Cl (relative stereo)", "logP": "3.56^[b]"}
{"molecule": "O=C(N[C@@H]1C[C@@H]1c1ccc(Cl)cc1Cl)c1ccccc1Cl (relative stereo)", "logP": "3.27^[b]"}
{"molecule": "Cn1cc(C(=O)NC2CCC2c2c(F)cccc2F)c(C(F)F)n1 (centres unmarked)", "logP": "2.42^[b]"}

Notebook: O=C(N[C@@H]1CC[C@@H]1c1c(F)cccc1C(F)(F)F)c1cccnc1C(F)(F)F (relative stereo) , logP read as 3.81^[b]

Notebook: O=C(NC1CCCCC1c1ccc(Cl)cc1Cl)c1c(F)cccc1F (centres unmarked) , logP read as 4.26^[b]

Notebook: O=C(N[C@@H]1CC[C@@H]1c1cc(F)ccc1C(F)(F)F)c1nccnc1Cl (relative stereo) , logP read as 2.88^[b]

###

Assay: Measurement of log P values by HPLC on reversed phase columns (methods [a] pH 2.3, [b] pH 2.7, [c] pH 7.8)
Type: physicochemical
Settings: HPLC reversed phase, method [b] (pH 2.7)
Recorded logP, one value per entry.

{"molecule": "O=C(NC1CCCC1c1c(F)cccc1F)c1ccccc1Cl (centres unmarked) [Compound 311]", "quantity": "logP", "observed.result": "3.24^[b]"}
{"molecule": "O=C(NC1CCC1c1ccccc1Cl)c1ccccc1 (centres unmarked) [Example 447]", "quantity": "logP", "observed.result": "3.14^[b]"}
{"molecule": "O=C(N[C@@H]1CC[C@@H]1c1cc(F)ccc1C(F)(F)F)c1ccccc1Cl (relative stereo) [Compound 528]", "quantity": "logP", "observed.result": "3.34^[b]"}
{"molecule": "O=C(N[C@@H]1CC[C@@H]1c1cc(F)ccc1C(F)(F)F)c1ccccc1C(F)(F)F (relative stereo) [Compound 586]", "quantity": "logP", "observed.result": "3.53^[b]"}
{"molecule": "O=C(NC1CCCCC1c1ccccc1C(F)(F)F)c1ccccc1C(F)(F)F (centres unmarked) [Example 390]", "quantity": "logP", "observed.result": "4.11^[b]"}

Notebook: CC(C)Oc1ccc([C@H]2CCC[C@H]2NC(=O)c2ccccc2[N+](=O)[O-])cc1 (relative stereo) [Example 318] , logP read as 3.30^[b]

Notebook: O=C(N[C@@H]1CC[C@@H]1c1c(F)cccc1C(F)(F)F)c1nccnc1Cl (relative stereo) [Compound 576] , logP read as 3.02^[b]

Notebook: O=C(N[C@@H]1CC[C@@H]1c1ccc(F)cc1C(F)(F)F)c1ccccc1 (relative stereo) [Compound 505] , logP read as 2.97^[b]

###

Assay: Measurement of log P values by HPLC on reversed phase columns (methods [a] pH 2.3, [b] pH 2.7, [c] pH 7.8)
Format: physicochemical
Details: method [b], HPLC reversed phase, pH 2.7
Recorded logP, one value per entry.

Example compounds with recorded logP:
{"compound": "Cn1nc(C(F)F)c(C(=O)NC2CCCCC2c2ccccc2)c1Cl (centres unmarked) [Example 184]", "logP": "3.33^[b]"}
{"compound": "O=C(NC1CC1c1ccccc1Cl)c1ccccc1C(F)(F)F (centres unmarked)", "logP": "3.13^[b]"}
{"compound": "O=C(NC1CCC1c1c(F)cccc1F)c1ccccc1Br (centres unmarked)", "logP": "2.97^[b]"}
{"compound": "FC(F)(F)c1ccccc1C(=S)NC1CC1c1ccccc1 (centres unmarked)", "logP": "3.69^[b]"}

Turning now to a further record.
Notebook: Cn1nc(C(F)F)c(C(=O)NC2CC2c2ccc(F)cc2)c1F (centres unmarked) , logP read as 2.59^[b]
